Catalogue of MHC values
tested on: Erythrocyte; assay: Hemolytic activity in human RBC incubated for 4 hrs by visual analysis; format: toxicity, cell-based
Number first, unit second: that is the form wanted.

Observe how each entry below is paired with its result.
CC(C)C[C@H](NC(=O)[C@H](CC(C)C)NC(=O)[C@H](CC(C)C)NC(=O)[C@@H](CCCCN)NC(=O)[C@H](CC(C)C)NC(=O)[C@H](CC(C)C)NC(=O)[C@@H](CCCCN)NC(=O)[C@H](CC(C)C)NC(=O)[C@H](CC(C)C)NC(=O)[C@@H](CCCCN)NC(=O)[C@H](N)CCCCN)C(N)=O
1000 µg/mL
CC(C)C[C@H](NC(=O)[C@H](CC(C)C)NC(=O)[C@H](CCCCN)NC(=O)[C@H](CC(C)C)NC(=O)[C@H](CC(C)C)NC(=O)[C@@H](CCCCN)NC(=O)[C@H](N)CCCCN)C(=O)N[C@@H](CCCCN)C(=O)N[C@@H](CC(C)C)C(=O)N[C@@H](CC(C)C)C(=O)N[C@H](CC(C)C)C(N)=O
125 µg/mL

Query (compound): CC(C)C[C@@H](NC(=O)[C@@H](CC(C)C)NC(=O)[C@@H](CC(C)C)NC(=O)[C@H](CCCCN)NC(=O)[C@@H](CC(C)C)NC(=O)[C@@H](CC(C)C)NC(=O)[C@H](CCCCN)NC(=O)[C@@H](CC(C)C)NC(=O)[C@@H](CC(C)C)NC(=O)[C@H](CCCCN)NC(=O)[C@@H](N)CCCCN)C(N)=O ; field requested: MHC
250 µg/mL

Given CC(C)CC(NC(=O)C(CC(C)C)NC(=O)C(CC(C)C)NC(=O)C(CCCCN)NC(=O)C(CC(C)C)NC(=O)[C@H](CC(C)C)NC(=O)C(CCCCN)NC(=O)C(CC(C)C)NC(=O)C(CC(C)C)NC(=O)C(CCCCN)NC(=O)C(N)CCCCN)C(N)=O (stereo not given in full) , state its recorded MHC.
2000 µg/mL

What value of measured MHC is listed for CC(C)C[C@H](NC(=O)[C@H](CC(C)C)NC(=O)[C@H](CC(C)C)NC(=O)[C@@H](CCCCN)NC(=O)[C@@H](CC(C)C)NC(=O)[C@@H](CC(C)C)NC(=O)[C@@H](CCCCN)NC(=O)[C@H](CC(C)C)NC(=O)[C@H](CC(C)C)NC(=O)[C@H](CCCCN)NC(=O)[C@@H](N)CCCCN)C(N)=O ?
1000 µg/mL

FYI, the data here is from ChEMBL document CHEMBL5338802.
